Here, each record is paired with measured pIC50 data.
- Target or test system: NSP14 (Severe acute respiratory syndrome coronavirus 2)
- Assay procedure: NSP14 MTase inhibition assay at 37° C. (MTase-Glo SAH detection)
- Format: biochemical, SARS-CoV-2
- Condition summary: 37° C., 0.3 nM NSP14, 2.5 μM SAM, 2.5 μM GpppA RNA; read-out: Nsp14 Mtase Inh. IC50
pIC50: −log10 of the molar value.
Experimental endpoint: pIC50

[[record]]
molecule = "Cc1c(S(=O)(=O)c2ccc3[nH]ncc3c2)cc(C(=O)NCc2cccc3c(F)nn(C)c23)n1C [B.44]"
target_or_test_system = "NSP14 (Severe acute respiratory syndrome coronavirus 2)"
experimental_endpoint = "pIC50"
qualifying_sign = "="
reading = 9.62

[[record]]
molecule = "Cc1c(S(=O)(=O)c2ccc3[nH]nc(F)c3c2)cc(C(=O)NCc2c(F)ccc3ncn(C4CC4)c23)n1C [B.103]"
target_or_test_system = "NSP14 (Severe acute respiratory syndrome coronavirus 2)"
experimental_endpoint = "pIC50"
qualifying_sign = ">"
reading = 9.82

[[record]]
molecule = "Cc1c(S(=O)(=O)c2ccc3[nH]ncc3c2)cc(C(=O)NCc2c(F)cccc2OCCS(C)(=O)=O)n1C [B.108]"
target_or_test_system = "NSP14 (Severe acute respiratory syndrome coronavirus 2)"
experimental_endpoint = "pIC50"
qualifying_sign = ">"
reading = 9.82

[[record]]
molecule = "Cc1cc[nH]c(=O)c1CNC(=O)c1cc(S(=O)(=O)c2ccc3[nH]ncc3c2)c(C)n1C [B.116]"
target_or_test_system = "NSP14 (Severe acute respiratory syndrome coronavirus 2)"
experimental_endpoint = "pIC50"
qualifying_sign = "="
reading = 8.34


Data origin, for the record: patent US20260226034A1
